Task for the reader: assign each of the following compounds its reported growth inhibition.
Experiment: NCI Yeast Anticancer Drug Screen. Data for the mlh1 rad18 strain (AID 175)
Details: S. cerevisiae mlh1 rad18 strain growth inhibition; at 50.0 µM; active compounds read high
This is part of a sample that, as a whole, favours compounds with a hit. Of some 79,000 tested, about 15% had one in any assay.
Answers are plain numbers, in %.

Take a look at these entries with their results.
- Compound: "CO/N=C1\\C(C)(C)C(C)(C)C(C)(C)C1(C)SS(=O)(=O)O (stereo unspecified)"
  growth inhibition, %: 29.9
- Compound: "Cc1nn(-c2ccccc2)c2c1N=C(C(=O)O)CC(c1ccccc1)=N2"
  growth inhibition, %: 13.8
- Compound: "N#CC1=CCc2ccccc2N1C(=O)Oc1ccccc1"
  growth inhibition, %: 47.2
- Compound: "O.O.[Cl][Pt+2][Cl].[NH-]CC1(C[NH-])CCCCC1"
  growth inhibition, %: -30.1

// batch mode: one growth inhibition value per listed entry
1. Ic1ccccc1/C=C/c1ccccn1
2. CCC1(O)c2ccccc2CCC1C (stereo unspecified)

1: -0.2; 2: -19.9

====

Assay: NCI Yeast Anticancer Drug Screen. Data for the bub3 strain (AID 167)
Conditions: S. cerevisiae bub3 mutant strain, at 50.0 µM
The panel holds about 79,000 compounds, 15% with a hit somewhere; the sample as a whole holds those more often. Calls of active or inactive are those of the source. Rule as the data show it: active = growth inhibition above about 70%; inactive = the rest. *1 amine or outer side, *2 acyl side, *3 side chain or, on linkers, in order; H or OH if unused. Where a SMILES comes first, the peptide text is derived from it. Bridges are numbered along the chain shown (N, C = ends). Roman numbers before positions name the chains, in order. [ ]: non-standard residue; d: D form. Actinocin(9to1) = Cc1c2oc3c(C)ccc(C(=O)[*:1])c3nc-2c(C(=O)[*:2])c(N)c1=O; NMeT = CN[CH](C(=O)O)[CH](C)O; Sar = CNCC(=O)O
Classes to choose from: active, inactive

As a guide, the following entries are already answered.
- Molecule: "BrC/C(=N\\N1CCCCC1)c1ccc(Br)cc1"
  Category: "inactive"
- Molecule: "Cc1c2oc3c(C)ccc(C(=O)NC4C(=O)NC(C(C)C)C(=O)N5CCCC5C(=O)N(C)CC(=O)N(C)C(C(C)O)C(=O)OC4C)c3nc-2c(C(=O)NC2C(=O)NC(C(C)C)C(=O)N3CCCC3C(=O)N(C)CC(=O)N(C)C(C(C)O)C(=O)OC2C)c(N)c1=O (configuration not stated) (I: TVP[Sar][NMeT] / II: TVP[Sar][NMeT]; ester I:1-I:C, II:1-II:C; linker I:N-II:N via Actinocin(9to1); configuration not given here)"
  Category: "inactive"
- Molecule: "CCCC(=O)Oc1ccc(C)cc1C(C)(C)C"
  Category: "inactive"
- Molecule: "NC(=O)c1ccccc1C(N)=O"
  Category: "inactive"

// outcome(item) with item = CC(c1ccccc1)C1OCCO1 (configuration not stated)
inactive

// outcome(item) with item = CCOC(=O)c1[nH]n(-c2ccccc2)c(=O)c1C=NC(=S)c1cccnc1
inactive

// outcome(item) with item = S=c1nc[nH]c2c1CN(Cc1ccccc1)CC2
inactive

// outcome(item) with item = C/C=C(\C)c1cc(O)c(C)c2c1Oc1cc(O)c(Cl)c(C)c1C(=O)O2
active

// outcome(item) with item = CC1(C(Cl)Cl)C=CC(=O)c2ccccc21 (configuration not stated)
inactive

// outcome(item) with item = CCC[CH2][Sn]([CH2]CCC)([O]C(=O)c1cccc(F)c1F)[O][Sn]([CH2]CCC)([CH2]CCC)[O]C(=O)c1cccc(F)c1F
active

// outcome(item) with item = C=CCC(CC=C)(C(=O)Nc1ccc2nc(C)cc(N)c2c1)C(=O)Nc1ccc2nc(C)cc(N)c2c1
inactive

====

Assay: NCI Yeast Anticancer Drug Screen. Data for the bub3 strain (AID 167)
Details: S. cerevisiae bub3 mutant strain, at 50.0 µM, active compounds read high
Compounds without any hit were thinned out: in the full panel of roughly 79,000, 15% have a hit. Calls of active or inactive are those of the source. No stated cut-off is given here; in the data, active means growth inhibition above about 70%; inactive means the rest.
Measured quantity: growth inhibition

Take a look at these entries with their results.
- Molecule: "CCc1ccc(NC(=S)NC(=O)c2ccccc2OC)cc1"
  growth inhibition: "20.4% (inactive)"
- Molecule: "C=CC1CC1(Cl)Cl (stereo not drawn)"
  growth inhibition: "0.5% (inactive)"
- Molecule: "CCN(CC)c1ccc(/C=N/NC(=O)NN)cc1"
  growth inhibition: "-7.95% (inactive)"
- Molecule: "CCOC(=O)C(CO)NC(=O)c1cnc2ccccc2c1 (stereo not drawn)"
  growth inhibition: "-30.4% (inactive)"

// batch mode: one growth inhibition value per listed entry
1. CCNC(=O)OCCN(CCOC(=O)NCC)CCc1ccccc1
2. BrC1CC2CC1C1C2CC2OC21 (stereo not drawn)
3. Cc1cc(C)c(/C(O)=C/C(=S)N2CCOCC2)c(C)c1
4. CCCCOc1ccc(CCOC(C)=O)cc1
5. C/C(CC(N)=O)=C1\C(=O)NN(c2ccccc2)C1=O
6. c1ccc(-c2sc(-c3ccccc3)c3c2C2CCC3C2)cc1

-17.4% (inactive)
9.2% (inactive)
-15.3% (inactive)
-15% (inactive)
40% (inactive)
40.6% (inactive)

// batch mode: one growth inhibition value per listed entry
1. CSc1ncc(CO)c(Nc2ccccc2Cl)n1
2. O=c1c2ccccc2[nH]c2c(O)ccc(O)c12

["12.3% (inactive)", "-1.55% (inactive)"]

Given the entry N#Cc1cc(C#N)c(N)nc1N , report its measured growth inhibition.
-1.25% (inactive)

====

Experiment: NCI Yeast Anticancer Drug Screen. Data for the mlh1 rad18 strain (AID 175)
Settings: S. cerevisiae mlh1 rad18 strain growth inhibition; at 50.0 µM; active compounds read high
This is part of a sample that, as a whole, favours compounds with a hit. Of some 79,000 tested, about 15% had one in any assay.
Measured quantity: growth inhibition (%)
Answers are plain numbers, in %.

Take a look at these entries with their results.
- Compound: "CCCCOc1cc(C(=O)O)ccc1[N+](=O)[O-]"
  Reading unit: "%"
  Assay result: -3.1
- Compound: "CN1C=CC=CC1=C1C(=O)c2ccccc2C1=O"
  Reading unit: "%"
  Assay result: 23.2
- Compound: "CCC(CC)(CO)CO"
  Reading unit: "%"
  Assay result: -1.55
- Compound: "CS(=O)(=O)OC1CCCS(=O)(=O)c2ccccc21 (configuration not stated)"
  Reading unit: "%"
  Assay result: -6.45
- Compound: "C=CCc1ccc(C)c(C)c1O"
  Reading unit: "%"
  Assay result: 12.8

// batch mode: one growth inhibition value per listed entry
1. NC(=O)c1cc([N+](=O)[O-])cnc1Sc1ncccn1
2. Cc1cc(C(=O)C=[N+]=[N-])c(CN2C(=O)c3ccccc3C2=O)c(=O)n1C
3. C/C=C(\C)C(=O)OC1C2C(C)C(=O)OC2C(O)C(C)C2C=CC(=O)C21C (configuration not stated)

1. 44.6
2. 1.4
3. 6.5

// batch mode: one growth inhibition value per listed entry
1. COc1cc(C2C3=C(COC3=O)Oc3cc4c(cc32)OCO4)ccc1OC(C)=O (configuration not stated)
2. COc1cc(CCNC2=CC(=O)c3cccnc3C2=O)ccc1O
3. Cc1nc2cccc([N+](=O)[O-])c2s1
4. CSc1ccc(NC(=O)c2ccc(C(=O)Nc3ccc(SC)cc3)cc2)cc1

-5.2
48.2
20.4
-26.7

====

Test: NCI Yeast Anticancer Drug Screen. Data for the mlh1 rad18 strain (AID 175)
Conditions: S. cerevisiae mlh1 rad18 strain growth inhibition; at 50.0 µM; active compounds read high
Compounds without any hit were thinned out: in the full panel of roughly 79,000, 15% have a hit.
Measured quantity: growth inhibition (%)
Answers are plain numbers, in %.

Take a look at these entries with their results.
- Molecule: "Cc1ccc(-c2cnc3c(n2)c(=O)[nH]c(=O)n3C)cc1"
  Reading unit: "%"
  growth inhibition: 35.6
- Molecule: "Cc1ccc(Cl)cc1NC(=O)CCc1ccccc1"
  Reading unit: "%"
  growth inhibition: 21.1

// batch mode: one growth inhibition value per listed entry
1. O=c1[nH]cc(COCCO)c(=O)[nH]1
2. Oc1ccc(-c2nc(-c3cccnc3)c(-c3ccc(Cl)cc3)[nH]2)cc1
3. CN(Cc1cnc2nc(N)nc(N)c2n1)c1ccc(C(=O)NC(CCC(=O)NC(CCC(=O)O)C(=O)O)C(=O)O)cc1 (stereo not given)
4. CCOC(=S)SCC(=O)c1ccc(Br)cc1
5. O=C(Nc1ccc(Cl)cc1)Nc1nnc(-c2cccc(-c3nnc(NC(=O)Nc4ccc(Cl)cc4)o3)c2)o1
6. CCCCCCCCn1c(C)nc2c(cnn2C)c1=O
7. Cc1ccc(C(=N)c2ccccc2Cc2cccc3ccccc23)c2ccccc12
8. Cc1cccc(N=C/C=C/c2ccccc2)c1C

[7.2, 81.7, 36.2, 83.5, 14, 4.8, -15.6, -5.85]
